Numbers sourced from the supplement of paper PMC4932681.

Tested on: ZR-75-1
EXPERIMENT: relative IC50 (midpoint of fitted logistic curve, plateau may be below 50% inhibition; CellTiter-Glo viability); higher = less potent
TEST_PARAMETERS: 4-OH-tamoxifen in medium 1 µM; 72 h
Reported relative IC50 values for the following molecules.
All answers are understood in nM, so give the number only.

**Q:** Would you kindly share the measured relative IC50 for CN1CC[C@H](c2c(O)cc(O)c3c(=O)cc(-c4ccccc4Cl)oc23)[C@H](O)C1 ?
**A:** 246

Continue with the molecule presented below.
**Q:** Given the molecule Cc1c2oc3c(C)ccc(C(=O)N[C@@H]4C(=O)N[C@H](C(C)C)C(=O)N5CCC[C@H]5C(=O)N(C)CC(=O)N(C)[C@@H](C(C)C)C(=O)O[C@@H]4C)c3nc-2c(C(=O)N[C@@H]2C(=O)N[C@H](C(C)C)C(=O)N3CCC[C@H]3C(=O)N(C)CC(=O)N(C)[C@@H](C(C)C)C(=O)O[C@@H]2C)c(N)c1=O , what is its reported relative IC50?
**A:** 9.03
